- Assay Overview: NCI Yeast Anticancer Drug Screen. Data for the cln2 rad14 strain (AID 165);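 note: 0% = growth equal to vehicle treated cultures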
- Measurement Conditions: S. cerevisiae cln2 rad14 strain, at 50.0 µM, hits give high values
- Procedure: Growth inhibition of yeast strains with defined genetic alterations is measured as a screen for potential anti-cancer activity. Selected strains with alterations in DNA damage repair or cell cycle control were exposed to compounds and growth inhibition was measured relative to vehicle treated controls. The strain used in this assay is cln2 rad14
Compounds without any hit were thinned out: in the full panel of roughly 79,000, 15% have a hit. Activity calls are given as the source filed them. Cut-off read from the data, not from the text of the source: active = growth inhibition above about 70%; inactive = the rest.
Readout: growth inhibition

| Compound | Reported Measurement |
| --- | --- |
| CCC1CN(CC(=O)c2ccc(Br)cc2)CCO1 (stereo not given) | 20.6% (inactive) |
| CC(=O)[CH-]C(C)=O.F[P-](F)(F)(F)(F)F.[Co+3].[NH-]CC[NH-].[NH-]CC[NH-] | -29.9% (inactive) |
| CCOC(=O)/C(=C\c1ccc(Cl)cc1)[Se]c1ccccc1 | 20.6% (inactive) |
| O=[N+]([O-])c1ccc(O)c(C=NCCN=Cc2cc([N+](=O)[O-])ccc2O)c1.[Zn+2] | -15.8% (inactive) |
| COc1ccc(CN2CCCN(Cc3ccc(OC)cc3)C2c2ccc(N(CCCl)CCCl)cc2)cc1 | 19.8% (inactive) |
